Where do the numbers come from? From patent US20250206836A1.

biological target: T1, nonhuman primate CD36 (on HEK 293 cells) (cynomolgus monkey / rhesus macaque, UniProt P16671 2-472 (human entry)); test: FACS, HEK 293 cells transiently overexpressing CD36;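 further: antibody binding to transfected cells detected by flow cytometry with a fluorescent anti-human secondary antibody, EC50 from a four-parameter sigmoidal fit of mean fluorescence intensity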
T1 construct: also called non-human primate CD36 (cynomolgus)
T1 sequence (P16671 other isoform, or with tags, fused parts or gaps limits assumed): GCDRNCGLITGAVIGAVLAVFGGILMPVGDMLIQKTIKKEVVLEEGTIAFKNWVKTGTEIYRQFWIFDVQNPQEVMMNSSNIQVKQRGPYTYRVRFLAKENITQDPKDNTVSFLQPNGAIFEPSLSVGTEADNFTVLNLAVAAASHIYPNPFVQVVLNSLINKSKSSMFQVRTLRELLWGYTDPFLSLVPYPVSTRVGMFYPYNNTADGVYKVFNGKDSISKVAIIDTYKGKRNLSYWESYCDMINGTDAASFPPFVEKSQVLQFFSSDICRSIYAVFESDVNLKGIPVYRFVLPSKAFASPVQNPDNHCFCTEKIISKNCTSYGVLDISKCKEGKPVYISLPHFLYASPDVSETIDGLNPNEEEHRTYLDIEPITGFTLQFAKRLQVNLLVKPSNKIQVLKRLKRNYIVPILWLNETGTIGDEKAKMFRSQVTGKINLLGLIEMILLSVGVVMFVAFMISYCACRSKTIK
Reported EC50 values for the following binders.
Readout label: EC50 (nM)

37G04 (antibody, human IgG1, V domains shown, Chimeric: chicken variable regions on human IgG1 LALA (L234A/L235A); also called 037G04) VH: AVTLDESGGGLQTPGGALSLVCKASGFTFSDYDMLWVRQAPGKGLEFVAGINAASTYTDYGAAVKGRATISRDNGQSTVRLQVNNLRAEDTGTYYCAKSSYGGGWSDVGSIDAWGHGTEVIVSS VL: ALTQPSSVSANPGETVKITCSGDRSYYGYGWYQQKAPGSAPVTVIYWDDKRPSDIPSRFSGSTSGSTATLTITGVQAEDEAVYFCGNMDSSYVGMFGAGTTLTVL
1.45
11G04 (antibody, human IgG1, V domains shown, Chimeric: mouse variable regions on human IgG1 LALA (L234A/L235A); also called 011G04) VH: EVQLQQSGAELVRPGASVTLSCKASGYRFSDYEMQWVKQTPVHGLEWIGGIDPETGGIAYNQKFKVKATLTADKSSSTAFMELRSLTSEDSAVYYCTRKLDFDYWGQGTTLTVSS VL: ETTVTQSPASLSVATGEKVTIRCITSTDIDDDMNWYQQKPGEPPKLLISEGNTLRPGVPSRFSSSGYGTDFVFTIENMLSEDVADYYCLQSDNLPLTFGAGTKLELK
8.93
